# METHOD NOTES: NCI Yeast Anticancer Drug Screen. Data for the rad50 strain (AID 155);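 note: 0% = growth of vehicle-only cultures of the same strain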
# ASSAY SETUP: S. cerevisiae rad50 strain growth inhibition; at 1.2 µM; active compounds read high
This is part of a sample that, as a whole, favours compounds with a hit. Of some 79,000 tested, about 15% had one in any assay. Active and inactive are the calls of the source. Cut-off read from the data, not from the text of the source: active = growth inhibition above about 70%; inactive = the rest.
MEASUREMENT NAME: growth inhibition

* C=C1CC(CCCl)(c2ccccc2)OC1=O (stereo not given) | 0% (inactive)
* COc1ccc(C/C=N/Nc2ccc([N+](=O)[O-])cc2)cc1OC | 27% (inactive)
* Nc1ccn(C2OC(COP(=O)(O)O)C(O)C2O)c(=O)n1 (stereo not given) | 0% (inactive)
* CCOC(=O)C(C(=O)OCC)=P(c1ccccc1)(c1ccccc1)c1ccccc1 | -58% (inactive)
* O=[N+]([O-])c1ccc2c(c1)/C(=N/N=C1c3ccccc3Cc3ccccc31)c1cc([N+](=O)[O-])cc([N+](=O)[O-])c1-2 | -10% (inactive)
* CCC(C)OC(=O)Nc1ccc(C)c(NC(=O)OC(C)CC)c1 (stereo not given) | 1% (inactive)
* O=[N+]([O-])c1ccc(N/N=C/Cc2ccccc2)c([N+](=O)[O-])c1 | 0% (inactive)
* CCCCCCOC(=O)NCCOC(=O)Nc1ccccc1 | 4% (inactive)
* COC(=O)CC1(O)C(/C=C/c2ccccc2)C(C(=O)OC)C(=O)C(C(=O)OC)C1C(=O)OC (stereo not given) | -1% (inactive)
* CN(C)CCNC(=O)c1cccc2c1Oc1c(cccc1[N+](=O)[O-])O2 | 6% (inactive)

* * *

# METHOD NOTES: NCI Yeast Anticancer Drug Screen. Data for the rad52 strain (AID 147);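 note: 0% = growth of vehicle-treated control cultures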
# ASSAY SETUP: S. cerevisiae rad52 mutant growth inhibition; at 1.2 µM; active compounds read high
Compounds without any hit were thinned out: in the full panel of roughly 79,000, 15% have a hit.
MEASUREMENT NAME: growth inhibition (%)

• CN(C)c1nc(=Nc2cccc(Cl)c2)ss1 = 7
• COC1=C(N)C(=O)c2nc(-c3nc(C(=O)O)c(C)c(-c4ccc(OC)c(OC)c4O)c3N)ccc2C1=O = 97
• N/C(=N/N=C/c1cc(Br)cc(Br)c1O)NO = -37
• O=C(CC(=O)n1nc(-c2ccccc2)c(N=Nc2ccc(Cl)cc2)c1-c1ccccc1)Nc1cccc(Cl)c1 = -4
• COc1cccc2c1C(=O)c1c(O)c3c(c(O)c1C2=O)CC(O)(C(O)CO)CC3OC1CC(N2CCOCC2)C(O)C(C)O1 (centres undefined) = 96
• COc1ccc(C2C3=C(COC3=O)OC(C)(C)Oc3cc4c(cc32)OCO4)cc1OC (centres undefined) = 17
• CC(=O)SC(C[N+](=O)[O-])c1ccccc1 (centres undefined) = 55
• CCOC(=O)C1N=[N+](c2ccccc2)C(=O)/C1=C\n1c(=S)[nH]c2ccc([N+](=O)[O-])cc21 (centres undefined) = 0
• CC(C)CCCC(C)C1CCC2C3CCC4=CC(=O)/C(=C\O)CC4(C)C3CCC12C (centres undefined) = 1

* * *

# METHOD NOTES: NCI Yeast Anticancer Drug Screen. Data for the mgt1 strain (AID 153)
# ASSAY SETUP: S. cerevisiae mgt1 mutant growth inhibition; at 1.2 µM; active compounds read high
Compounds without any hit were thinned out: in the full panel of roughly 79,000, 15% have a hit.
MEASUREMENT NAME: growth inhibition (%)

- CC1=NOC(=O)/C1=C/c1ccc2c(c1)OCO2: -4
- O=c1nc2n(Cc3ccccc3)c3ccccc3nc-2c(=O)[nH]1: -5
- C=C(C(=C)n1nnc(C(=O)OC)c1C(=O)OC)n1nnc(C(=O)OC)c1C(=O)OC: 0
- CCc1cc(O)c(Cl)c(C)c1Cl: 14
- COC(=O)/C=C(/C(=O)OC)C(Cl)(Cl)Cl: 3
- O=C1/C(=C/c2ccccc2)CCCC1CN1CCCCC1 (configuration not stated): 16
- OC(CCNCc1ccccc1)c1ccc2ccccc2c1 (configuration not stated): 14
- Clc1ccc2c(c1)N(CCCN1CCCC13CCCCC3)c1ccccc1S2: 2
- S=c1sc2c(s1)SCCS2: -2
- CC[N+]1(C)CCC(O)(c2ccc(OC)cc2)C(C(=O)c2ccc(OC)cc2)C1 (configuration not stated): -39
- Oc1ccc2ccccc2c1CCc1c(O)ccc2ccccc12: 2
- CCCCNC1CCC2(SCCS2)c2[nH]c3ccccc3c21 (configuration not stated): 2
